Reported pIC50 on UniProt:Q9H3R0 for assorted compounds, compiled from publications.
pIC50: −log10 of the molar value.

[
  {
    "COMPOUND_STRUCTURE": "Cc1ccccc1N(C)c1ccc2c(c1)OCC[C@H]2CNc1cnccc1C(=O)O",
    "pIC50": "6.00 to 7.00"
  },
  {
    "COMPOUND_STRUCTURE": "COc1cc(-c2ccnn2-c2cc(C(=O)O)ccn2)ccc1C",
    "pIC50": "5.00 to 6.00"
  }
]

Quick note, pIC50 for `O=C(O)c1ccncc1NC[C@H]1CCOc2cc(-c3ccccc3Cl)ccc21` landed at 5.00 to 6.00

Entry `Oc1nc(Oc2cnn([C@H]3CCCN(Cc4ccccc4)C3)c2)nc2cnccc12` — recorded pIC50 = ≥ 7.00

The recorded pIC50 for `O=C(O)c1ccnc(-n2nccc2OCc2ccc(Cl)cc2OCC(F)(F)F)c1` is 6.00 to 7.00
